Source listed as the NIST ThermoML archive (doi:10.1021/je700670k).

Run Conditions: 293.15 K; 35000 kPa; Liquid; Vibrating tube method
Measurement Type: mass density (kg/m3)
Your answer is read as kg/m3, so omit the unit and give the number.

Req: Please report the recorded mass density for "CCC[N+]1(C)CCCC1.O=S(=O)([N-]S(=O)(=O)C(F)(F)F)C(F)(F)F" .
Resp: 1462.3

Req: Please report the recorded mass density for "CCC[N+]1(C)CCCCC1.O=S(=O)([N-]S(=O)(=O)C(F)(F)F)C(F)(F)F" .
Resp: 1439.9

Req: Please report the recorded mass density for "CCC[n+]1cccc(C)c1.O=S(=O)([N-]S(=O)(=O)C(F)(F)F)C(F)(F)F" .
Resp: 1479.8

Req: Please report the recorded mass density for "CCCC[N+]1(C)CCCC1.O=S(=O)([N-]S(=O)(=O)C(F)(F)F)C(F)(F)F" .
Resp: 1432.8

Req: Please report the recorded mass density for CCn1cc[n+](C)c1.O=S(=O)([O-])C(F)(F)F [1-ethyl-3-methylimidazolium trifluoromethanesulfonate] .
Resp: 1399.1
